# EXPERIMENT_DESCRIPTION: self-splicing fitness, log relative to wild type (ln ratio); higher = more splicing; Tetrahymena group I intron in knt gene, E. coli kanamycin selection, DiMSum; sequences stand for … in CUCUCU…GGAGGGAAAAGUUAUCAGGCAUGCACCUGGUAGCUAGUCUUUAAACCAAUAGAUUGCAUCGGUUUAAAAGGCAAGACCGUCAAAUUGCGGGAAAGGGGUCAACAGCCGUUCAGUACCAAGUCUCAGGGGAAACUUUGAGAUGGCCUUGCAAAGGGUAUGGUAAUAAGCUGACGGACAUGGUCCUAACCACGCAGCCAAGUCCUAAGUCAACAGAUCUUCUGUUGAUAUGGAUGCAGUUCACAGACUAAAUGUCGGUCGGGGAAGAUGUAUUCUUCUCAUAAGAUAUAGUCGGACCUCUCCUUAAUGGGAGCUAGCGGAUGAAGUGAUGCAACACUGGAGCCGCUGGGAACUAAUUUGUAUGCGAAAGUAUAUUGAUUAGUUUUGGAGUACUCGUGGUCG;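 further: selection with 25 µg/mL kanamycin versus none on LB agar overnight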
# REPORTED_CONDITIONS: 30 °C
self-splicing fitness (ln): recorded values
Just the number, please.

Solved cases below.
> print(dat)
         chain.sequence  measured.value
1  AGGGAGCAAUAUUACGUCGU            -4.4
2  UGCAAGCAAUAUUACGAUAA            -0.8
3  ACCAAGCAAUAUUACGGCGU              -1
4  ACAGAGCAAUAUUACGGAAA           -3.38
5  CGUGAGCAAUAUUACGCUCU           -1.76

Quick check: self-splicing fitness (ln) of UUUUAGCAAUAUUACGAAAU ? -2.34

Now consider GAGUAGCAAUAUUACGCGGU . -3.68

Now consider UCGCAGCAAUAUUACGUCAA . -2.69

Now consider ACGAAGCAAUAUUACGACCG . -0.458

Now consider CCCCAGCAAUAUUACGAGGU . -3.6

Now consider UCUGAGCAAUAUUACGGGGG . -3.29

Now consider ACGUAGCAAUAUUACGCCAC . -4.5

Now consider GAUUAGCAAUAUUACGACCC . -0.91

Now consider UGUAAGCAAUAUUACGAUCU . 0.361

Now consider ACGUAGCAAUAUUACGCUGC . -3.09

Now consider CCGUAGCAAUAUUACGACCU . -0.833

----------
self-splicing fitness (ln): recorded values
# EXPERIMENT_DESCRIPTION: self-splicing fitness, log relative to wild type (ln ratio); higher = more splicing; Tetrahymena group I intron in knt gene, E. coli kanamycin selection, DiMSum; sequences stand for … in CUCUCU…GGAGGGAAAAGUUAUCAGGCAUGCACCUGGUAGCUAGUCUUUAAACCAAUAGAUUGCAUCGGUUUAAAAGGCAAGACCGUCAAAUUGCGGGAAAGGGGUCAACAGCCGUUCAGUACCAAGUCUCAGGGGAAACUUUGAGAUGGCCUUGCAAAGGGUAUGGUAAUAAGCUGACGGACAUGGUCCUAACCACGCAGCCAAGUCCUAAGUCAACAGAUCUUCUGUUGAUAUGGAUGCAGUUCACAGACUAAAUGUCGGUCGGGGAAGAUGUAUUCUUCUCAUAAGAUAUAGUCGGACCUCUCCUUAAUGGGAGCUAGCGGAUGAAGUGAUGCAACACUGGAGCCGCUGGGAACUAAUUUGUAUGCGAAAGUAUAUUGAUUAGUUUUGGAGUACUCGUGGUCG
# REPORTED_CONDITIONS: 37 °C
Just the number, please.

> print(dat)
          chain.sequence  measured.value
 1  UGUGAGCAAUAUUACGGCCA           0.465
 2  UAUGAGCAAUAUUACGACAA            -0.6
 3  CCCCAGCAAUAUUACGUGAG           -1.33
 4  CCUAAGCAAUAUUACGCAAA           -1.76
 5  GUGGAGCAAUAUUACGUAAG           -1.21
 6  UGCAAGCAAUAUUACGCGAU           -2.15
 7  GAACAGCAAUAUUACGCCCA          -0.316
 8  AGCUAGCAAUAUUACGGGCC           -2.51
 9  CGAAAGCAAUAUUACGUCGG         -0.0301
10  CUACAGCAAUAUUACGGAAC           -3.47

Quick check: self-splicing fitness (ln) of CACAAGCAAUAUUACGACGA ? -0.995

Now consider UUGUAGCAAUAUUACGGAUC . -2.48

Now consider GGGAAGCAAUAUUACGGAAA . -1.41

Now consider CUGAAGCAAUAUUACGUGCG . -0.325

Now consider UCACAGCAAUAUUACGUGAG . -0.396

Now consider GACAAGCAAUAUUACGCGAG . -2.03

Now consider GGAGAGCAAUAUUACGAAAU . -2.48

Now consider UCCCAGCAAUAUUACGCUAA . -0.958

Now consider CUUUAGCAAUAUUACGUUGU . -3.45

All figures here come from the supplement of paper PMC7877785.
